Test system: IL-2 stimulated STAT5 phosphorylation in Tall-1 human T cell line
Experiment: Inhibition of IL-2 stimulated pSTAT5 in Tall-1 T cells
Format: cell-based
Conditions: IL-2 300 ng/mL, pSTAT5 AlphaLisa, Tall-1 cells, read-out: Tall-1 pIC50 (converted)
Procedure: Assay 2: Inhibition of IL-2 Stimulated pSTAT5 in Tall-1 T Cells The potency of test compounds for inhibition of interleukin-2 (IL-2) stimulated STAT5 phosphorylation was measured in the Tall-1 human T cell line (DSMZ) using AlphaLisa. Phosphorylated STAT5 was measured via the AlphaLISA SureFire Ultra pSTAT5 (Tyr694/699) kit (PerkinElmer). Compounds were serially diluted in DMSO and dispensed acoustically to empty wells. […] Phosphorylated STAT5 was measured via the pSTAT5 AlphaLisa kit (PerkinElmer). […]
The entries below come with measured IC50 values attached.
Please give a number only; it is taken to be in nM.

Consider the reported IC50 for these molecules:
CCc1cc(O)ccc1-c1ccc2c(-c3nc4c([nH]3)CN(C(C)C)[C@H](C(=O)N3CC(N(C)C)C3)C4)n[nH]c2c1; 2.51
CCc1cc(O)ccc1-c1ccc2c(-c3nc4c([nH]3)CN(CC)[C@H](C(=O)N3CC(C)(N(C)C)C3)C4)n[nH]c2c1; 2.51
CCc1cc(O)ccc1-c1ccc2c(-c3nc4c([nH]3)CN(CC)[C@H](C(=O)N3CC(N(C)C)C3)C4)n[nH]c2c1; 2

Now for a further molecule.
Task: Item under review: CCc1cc(O)ccc1-c1ccc2c(-c3nc4c([nH]3)CN(C(C)C)[C@H](C(=O)N3CC(C)(N(C)C)C3)C4)n[nH]c2c1 . Reported IC50?
Result: 2

---

target: JAK2 (Homo sapiens (Human), UniProt O60674)
Sequence (O60674 whole entry): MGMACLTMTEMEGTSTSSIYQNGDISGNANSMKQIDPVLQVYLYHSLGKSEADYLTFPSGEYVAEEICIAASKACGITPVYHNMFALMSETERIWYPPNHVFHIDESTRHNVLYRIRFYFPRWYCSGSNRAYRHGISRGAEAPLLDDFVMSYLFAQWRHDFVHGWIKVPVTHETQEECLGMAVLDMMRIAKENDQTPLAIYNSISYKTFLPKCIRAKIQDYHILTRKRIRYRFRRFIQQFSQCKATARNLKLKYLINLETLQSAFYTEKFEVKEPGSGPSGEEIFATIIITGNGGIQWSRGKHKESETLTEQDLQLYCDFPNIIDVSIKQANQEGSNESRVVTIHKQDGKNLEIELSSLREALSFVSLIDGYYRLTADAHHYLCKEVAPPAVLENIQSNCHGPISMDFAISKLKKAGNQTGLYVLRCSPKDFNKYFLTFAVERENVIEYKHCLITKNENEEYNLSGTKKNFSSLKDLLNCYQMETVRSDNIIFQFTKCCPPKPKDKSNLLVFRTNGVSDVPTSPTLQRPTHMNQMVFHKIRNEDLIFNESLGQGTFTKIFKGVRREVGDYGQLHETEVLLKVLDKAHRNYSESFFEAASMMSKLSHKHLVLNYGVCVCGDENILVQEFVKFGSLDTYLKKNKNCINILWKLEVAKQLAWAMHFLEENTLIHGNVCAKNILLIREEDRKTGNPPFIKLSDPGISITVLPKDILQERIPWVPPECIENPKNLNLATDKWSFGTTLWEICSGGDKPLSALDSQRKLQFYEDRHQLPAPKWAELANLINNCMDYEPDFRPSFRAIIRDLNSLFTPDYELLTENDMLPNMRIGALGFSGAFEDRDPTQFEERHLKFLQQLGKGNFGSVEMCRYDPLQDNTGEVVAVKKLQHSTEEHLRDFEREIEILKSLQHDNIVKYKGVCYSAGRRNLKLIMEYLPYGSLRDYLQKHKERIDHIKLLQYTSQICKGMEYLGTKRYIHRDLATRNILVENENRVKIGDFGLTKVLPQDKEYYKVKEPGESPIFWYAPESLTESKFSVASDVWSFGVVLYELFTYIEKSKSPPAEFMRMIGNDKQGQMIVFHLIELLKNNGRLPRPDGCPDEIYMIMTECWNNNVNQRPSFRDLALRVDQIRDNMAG
RESULT_TYPE: Ki (nM)
Lab book: enter the figure in nM, no units written.

Task: GET /values?readout=Ki&system=JAK2 (Homo sapiens (Human), UniProt O60674)&item= CCc1cc(O)ccc1-c1ccc2c(-c3nc4c([nH]3)CN(C)[C@H](C(=O)N3CCN(CCO)C[C@H]3C)C4)n[nH]c2c1
Result: 0.0316

---

biological target: JAK2 (Homo sapiens (Human)); test: Biochemical JAK kinase assay (LanthaScreen), JAK2; conditions: converted from pIC50 using Cheng-Prusoff; ATP 3 μM
JAK2 pKi overview
Enter the number alone.

CCc1cc(O)ccc1-c1ccc2c(-c3nc4c([nH]3)CN(C(C)C)[C@H](C(=O)N3CC(N(C)C)C3)C4)n[nH]c2c1; 10.5
CCCN1Cc2[nH]c(-c3n[nH]c4cc(-c5ccc(O)cc5CC)ccc34)nc2C[C@H]1C(=O)N1CC(N(C)C)C1; 10.6

--- query ---
Task: Can you look up JAK2 pKi on JAK2 (Homo sapiens (Human)) for CCc1cc(O)c(F)cc1-c1ccc2c(-c3nc4c([nH]3)CN(C(C)C)[C@H](C(=O)N3CC(N(C)C)C3)C4)n[nH]c2c1 ?
Result: 10.8

---

assay: Lung and plasma exposure in mice after oral aspiration; type: in vivo; settings: mouse, plasma, other: oral aspiration, 50 µg/animal, Balb/c mice, 1 mg/mL, 50 μL via oral aspiration, read-out: Plasma Concentration (ng/mL) at 5 hr
RESULT_TYPE: concentration at 5 h (ng/mL)
Form entry: value (ng/mL) — number only.

Reference set (4 entries):
CCc1cc(O)ccc1-c1ccc2c(-c3nc4c([nH]3)CN(CC)[C@H](C(=O)N3CC(N(C)C)C3)C4)n[nH]c2c1; 23
CCCN1Cc2[nH]c(-c3n[nH]c4cc(-c5ccc(O)cc5CC)ccc34)nc2C[C@H]1C(=O)N1CC(N(C)C)C1; 25
CCCN1Cc2[nH]c(-c3n[nH]c4cc(-c5ccc(O)cc5CC)ccc34)nc2C[C@H]1C(=O)N1CC(C)(N(C)C)C1; 23
CCc1cc(O)c(F)cc1-c1ccc2c(-c3nc4c([nH]3)CN(C(C)C)[C@H](C(=O)N3CC(N(C)C)C3)C4)n[nH]c2c1; 58

Task: What does the record list as concentration at 5 h for CCc1cc(O)ccc1-c1ccc2c(-c3nc4c([nH]3)CN(CC)[C@H](C(=O)N3CC(C)(N(C)C)C3)C4)n[nH]c2c1 ?
Result: 24

Task: Quick check: concentration at 5 h of CCc1cc(O)ccc1-c1ccc2c(-c3nc4c([nH]3)CN(C(C)C)[C@H](C(=O)N3CC(C)(N(C)C)C3)C4)n[nH]c2c1 ?
Result: 55
